system: various unwanted plants; assay: Post-emergence effect against various unwanted plants (PO): comparative test of I-01 with compounds from WO2020/245044 (Tables 41a, 41b) and summary statements; type: in vivo; conditions: ALOMY, 80 g/ha, comparative test
measuredEndpoint: Post-emergence effect, Effect %, ALOMY (%)
Give bare numbers, in %.

>  <molecule>
CCOC(=O)C(F)Oc1nn(-c2ccccc2F)c(-c2ccc(F)nc2)c1Br (stereo not shown)

>  <observedValue>
50

$$$$
>  <molecule>
CCOC(=O)COc1nn(-c2ccccc2F)c(-c2ccc(F)nc2)c1Br

>  <observedValue>
70

$$$$

I'm hoping you can list Post-emergence effect, Effect %, ALOMY for every molecule here, please.
1. CCOC(=O)C(OCC)Oc1nn(-c2ccccc2F)c(-c2ccc(F)nc2)c1Br (racemic)
2. CCCC(Oc1nn(-c2ccccc2F)c(-c2ccc(F)nc2)c1Br)C(=O)OCC (stereo not shown)

A.
1. 90
2. 0

###

test system: ZEAMX; experiment: Post-emergence herbicidal effect and crop plant compatibility, greenhouse pot test; assay type: in vivo, Zea mays; conditions: 20 g/ha, one-leaf stage, rated visually after about 3 weeks vs untreated controls
Please respond with reported Post-emergence effect at 20 g/ha against ZEAMX in % for every item in the list.
One number for each entry, in %.

Solved cases (4 shown):
>  <compound>
COC(=O)CCOC(=O)C(OC)Oc1nn(-c2ncccc2F)c(-c2ccc(F)nc2)c1C1CC1 (single isomer, unassigned) [Example I-81]

>  <observedValue>
0

$$$$
>  <compound>
COC(=O)CCOC(=O)C(OC)Oc1nn(-c2ncccc2F)c(-c2cncc(F)c2)c1C1CC1 (stereo not shown) [Example I-82]

>  <observedValue>
20

$$$$
>  <compound>
COC(=O)CCOC(=O)C(OC)Oc1nn(-c2ccccc2F)c(-c2ccc(F)nc2)c1Br (single isomer, unassigned) [Example I-13]

>  <observedValue>
10

$$$$
>  <compound>
COC(Oc1nn(-c2ncccc2F)c(-c2ccc(F)nc2)c1C1CC1)C(=O)O (stereo not shown) [Example I-89]

>  <observedValue>
0

$$$$

I'm hoping you can list Post-emergence effect at 20 g/ha against ZEAMX in % for every compound here, please.
1. COC(=O)CCOC(=O)C(OC)Oc1nn(-c2ccccc2F)c(-c2ccc(F)nc2)c1C1CC1 (single isomer, unassigned) [Example I-74]
2. COC(Oc1nn(-c2ccccc2F)c(-c2ccc(F)nc2)c1Br)C(=O)O (stereo not shown) [Example I-25]
3. COC(Oc1nn(-c2ncccc2F)c(-c2ccc(F)nc2)c1C1CC1)C(=O)O (stereo not shown) [Example I-90]
4. COC(=O)C(OC)Oc1nn(-c2ccccc2F)c(-c2ccc(F)nc2)c1C(F)(F)C(F)(F)F (stereo not shown) [Example I-60]
5. COC(=O)CCOC(=O)C(OC)Oc1nn(-c2ccccc2F)c(-c2ccc(F)nc2)c1C(F)(F)F (stereo not shown) [Example I-62]
6. CCOC(Oc1nn(-c2ccccc2F)c(-c2ccc(F)nc2)c1Cl)C(=O)OCC(C)C(=O)OC (racemic) [Example I-54]
7. COC(Oc1nn(-c2cccc(C)c2F)c(-c2ccnc(F)c2)c1Br)C(=O)O (stereo not shown) [Example I-92]
8. COC(=O)C(OC)Oc1nn(-c2ncccc2F)c(-c2ccc(F)nc2)c1C1CC1 (stereo not shown) [Example I-107]

A.
0
20
0
0
0
0
20
0

Q. Find the recorded Post-emergence effect at 20 g/ha against ZEAMX in % belonging to COC(=O)C(OC)Oc1nn(-c2cccc(C)c2F)c(-c2ccc(F)nc2)c1C1CC1 (stereo not shown) [Example I-93] and report it.
A. 10
